- experimental_target: T1, human ADAMTS13 (human, UniProt Q76LX8 75-1427)
- T1 construct: ELISA: full-length recombinant ADAMTS13 coated on plates (Technoclone); Activity assays: endogenous ADAMTS13 of normal human plasma; also called full-length human recombinant ADAMTS13; VWF-cleaving protease
- T1 sequence (looked up): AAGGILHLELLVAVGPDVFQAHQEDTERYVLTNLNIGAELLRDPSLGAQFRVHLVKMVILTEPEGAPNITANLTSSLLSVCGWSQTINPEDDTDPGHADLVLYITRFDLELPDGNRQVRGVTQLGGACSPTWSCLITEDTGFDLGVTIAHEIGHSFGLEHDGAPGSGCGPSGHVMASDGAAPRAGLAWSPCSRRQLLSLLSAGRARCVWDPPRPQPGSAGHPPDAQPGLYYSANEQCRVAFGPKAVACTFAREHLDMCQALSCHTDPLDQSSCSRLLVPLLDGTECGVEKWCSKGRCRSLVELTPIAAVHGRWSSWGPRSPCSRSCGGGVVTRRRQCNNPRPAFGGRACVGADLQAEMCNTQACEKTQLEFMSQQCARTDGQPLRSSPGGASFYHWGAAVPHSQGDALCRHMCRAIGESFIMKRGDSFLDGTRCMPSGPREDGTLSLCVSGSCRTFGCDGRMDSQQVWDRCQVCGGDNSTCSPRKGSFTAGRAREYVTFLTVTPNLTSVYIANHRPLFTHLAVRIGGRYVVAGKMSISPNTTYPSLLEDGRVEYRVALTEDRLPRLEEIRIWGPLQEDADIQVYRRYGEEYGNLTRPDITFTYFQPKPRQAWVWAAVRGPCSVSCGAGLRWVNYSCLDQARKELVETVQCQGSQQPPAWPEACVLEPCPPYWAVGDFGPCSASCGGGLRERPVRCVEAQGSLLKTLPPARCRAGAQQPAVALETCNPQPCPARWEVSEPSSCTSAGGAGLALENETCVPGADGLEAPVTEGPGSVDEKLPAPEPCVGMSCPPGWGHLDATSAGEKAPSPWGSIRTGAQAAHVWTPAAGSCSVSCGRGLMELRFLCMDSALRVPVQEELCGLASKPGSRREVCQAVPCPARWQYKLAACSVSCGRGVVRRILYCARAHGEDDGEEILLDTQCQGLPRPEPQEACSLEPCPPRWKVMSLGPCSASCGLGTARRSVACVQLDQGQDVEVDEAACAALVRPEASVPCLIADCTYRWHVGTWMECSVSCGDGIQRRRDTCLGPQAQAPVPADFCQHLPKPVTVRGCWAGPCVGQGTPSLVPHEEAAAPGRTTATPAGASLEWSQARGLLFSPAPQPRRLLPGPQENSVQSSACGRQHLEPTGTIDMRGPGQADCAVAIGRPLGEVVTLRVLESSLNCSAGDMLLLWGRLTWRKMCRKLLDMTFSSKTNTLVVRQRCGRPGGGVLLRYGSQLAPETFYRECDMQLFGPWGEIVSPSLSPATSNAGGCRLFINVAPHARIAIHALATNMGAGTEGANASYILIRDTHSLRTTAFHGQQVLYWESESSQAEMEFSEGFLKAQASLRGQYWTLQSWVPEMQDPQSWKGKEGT
- assay_notes: phage ELISA on ADAMTS13-coated plates (positive: >10-fold absorbance above background)

binder	binding result
scFv 1-401 (scFv, V domains shown) VH: QVQLVQSGAELKKPGSSVKVSCKASGGAFTMYTINWVRQAPGRGLEWMGRIIPILGITDYAQKFQGRGTITADKSTSTAYLELSGLTSEDTAVYYCAREFSGGNYFDFWGQGTLVTVSS VL: ELVLTQPPSVSVAPGKTARMTCGGNNIGGYSVHWYQQKPGQAPVLVVYHDSDRPSGIPERFTGSNSGNMATLTISRVEAGDEADYYCQVWDSSNDHSVFGGGTELTVL	binds
scFv 1-440 (scFv, V domains shown) VH: EVQLLESGGGLVQPGRSLRLSCAASGFIFDDYAMHWVRQAPGKGLEWVSGISWNSGSIGYADSVKGRFTISRDNAKNSLYLQMNSLRAEDTALYYCAKDPNSLYRSGSFDYWGQGTLVTVSS VL: ELQMTQSPSSLSASVGDRVTITCRASQSISSYLNWYQQKPGKAPKLLIYAASSLESGVPSRFSGSGSGTDFTLTISSLQPEDFASYYCQQSYSTPFTFGPGTKVDIK	binds
scFv 1-413 (scFv, V domains shown) VH: QVQLVQSGSEVKKPGSSVKVSCKASGGTFSSHTLSWVRQAPGQGLEWMGEIIPILDRVKYSQNFQGRVTITADKSTNTTYMELSSVRSEDTAVYYCVSNGWSNFDFWGQGTLVTVSP VL: ELELTQPPSVSVSPGQTARITCSGGALPKHYVYWYQQKPGQAPAVVIYKDTERPSGIPERFSGSTSGATVTLTISGVQADDDAVYFCQSVDSNDTSWIFGGGTKLTVL	binds

Values from patent US20190031771A1
